target: LPA2 (Homo sapiens)
Sequence (Q9HBW0 whole entry): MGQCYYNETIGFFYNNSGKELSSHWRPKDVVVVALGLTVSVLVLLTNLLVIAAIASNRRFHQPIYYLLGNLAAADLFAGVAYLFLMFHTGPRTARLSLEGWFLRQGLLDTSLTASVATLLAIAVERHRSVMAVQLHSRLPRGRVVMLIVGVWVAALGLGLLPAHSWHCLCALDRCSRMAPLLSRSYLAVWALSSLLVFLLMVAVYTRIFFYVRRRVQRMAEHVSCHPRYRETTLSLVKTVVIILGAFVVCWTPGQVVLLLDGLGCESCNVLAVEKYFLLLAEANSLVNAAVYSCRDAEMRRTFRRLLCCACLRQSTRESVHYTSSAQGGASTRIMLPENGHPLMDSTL
metric-name: EC50

> print(dat)
                            molecule.smiles   result
1  O=C(O)c1ccccc1S(=O)(=O)NCCCCN1C(=O)c2cccc3cccc(c23)C1=O  ~100 nM
